# tested-target: ENO1 wt (Homo sapiens, UniProt P06733 1-434)
# Sequence (P06733 whole entry): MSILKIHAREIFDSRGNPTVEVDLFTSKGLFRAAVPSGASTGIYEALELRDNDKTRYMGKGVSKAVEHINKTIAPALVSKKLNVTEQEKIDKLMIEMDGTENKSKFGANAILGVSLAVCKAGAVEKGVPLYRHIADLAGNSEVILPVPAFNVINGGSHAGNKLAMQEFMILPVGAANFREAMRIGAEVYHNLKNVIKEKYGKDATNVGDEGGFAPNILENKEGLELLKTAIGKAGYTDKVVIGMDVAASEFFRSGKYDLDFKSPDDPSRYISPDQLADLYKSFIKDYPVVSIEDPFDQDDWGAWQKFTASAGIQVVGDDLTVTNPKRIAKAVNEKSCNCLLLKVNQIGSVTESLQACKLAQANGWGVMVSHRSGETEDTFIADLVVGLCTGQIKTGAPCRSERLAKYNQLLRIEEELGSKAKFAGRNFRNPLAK
# experiment-summary: competition EMSA
Ki by entry:

| binder | units-label | Ki |
| --- | --- | --- |
| GGCCCCCAGCCCCGGCACUCGCUCUCCUCCUCUCA (ssRNA) [PABPC1 control 35-mer] | nM | 2590 |
| CCUCUUUUAUAAAAUAACCCGGUGAAGCAGCCGAG (ssRNA) [PABPC1 target 35-mer] | nM | 27 |
